biological target: UniProt:P08183; assay: Inhibition of P-glycoprotein-mediated daunorubicin efflux from human CCRF-CEM/VCR1000 cells after 240 secs by FACS flow cytometric analysis; conditions: read-out: IC50
Sequence (P08183 whole entry): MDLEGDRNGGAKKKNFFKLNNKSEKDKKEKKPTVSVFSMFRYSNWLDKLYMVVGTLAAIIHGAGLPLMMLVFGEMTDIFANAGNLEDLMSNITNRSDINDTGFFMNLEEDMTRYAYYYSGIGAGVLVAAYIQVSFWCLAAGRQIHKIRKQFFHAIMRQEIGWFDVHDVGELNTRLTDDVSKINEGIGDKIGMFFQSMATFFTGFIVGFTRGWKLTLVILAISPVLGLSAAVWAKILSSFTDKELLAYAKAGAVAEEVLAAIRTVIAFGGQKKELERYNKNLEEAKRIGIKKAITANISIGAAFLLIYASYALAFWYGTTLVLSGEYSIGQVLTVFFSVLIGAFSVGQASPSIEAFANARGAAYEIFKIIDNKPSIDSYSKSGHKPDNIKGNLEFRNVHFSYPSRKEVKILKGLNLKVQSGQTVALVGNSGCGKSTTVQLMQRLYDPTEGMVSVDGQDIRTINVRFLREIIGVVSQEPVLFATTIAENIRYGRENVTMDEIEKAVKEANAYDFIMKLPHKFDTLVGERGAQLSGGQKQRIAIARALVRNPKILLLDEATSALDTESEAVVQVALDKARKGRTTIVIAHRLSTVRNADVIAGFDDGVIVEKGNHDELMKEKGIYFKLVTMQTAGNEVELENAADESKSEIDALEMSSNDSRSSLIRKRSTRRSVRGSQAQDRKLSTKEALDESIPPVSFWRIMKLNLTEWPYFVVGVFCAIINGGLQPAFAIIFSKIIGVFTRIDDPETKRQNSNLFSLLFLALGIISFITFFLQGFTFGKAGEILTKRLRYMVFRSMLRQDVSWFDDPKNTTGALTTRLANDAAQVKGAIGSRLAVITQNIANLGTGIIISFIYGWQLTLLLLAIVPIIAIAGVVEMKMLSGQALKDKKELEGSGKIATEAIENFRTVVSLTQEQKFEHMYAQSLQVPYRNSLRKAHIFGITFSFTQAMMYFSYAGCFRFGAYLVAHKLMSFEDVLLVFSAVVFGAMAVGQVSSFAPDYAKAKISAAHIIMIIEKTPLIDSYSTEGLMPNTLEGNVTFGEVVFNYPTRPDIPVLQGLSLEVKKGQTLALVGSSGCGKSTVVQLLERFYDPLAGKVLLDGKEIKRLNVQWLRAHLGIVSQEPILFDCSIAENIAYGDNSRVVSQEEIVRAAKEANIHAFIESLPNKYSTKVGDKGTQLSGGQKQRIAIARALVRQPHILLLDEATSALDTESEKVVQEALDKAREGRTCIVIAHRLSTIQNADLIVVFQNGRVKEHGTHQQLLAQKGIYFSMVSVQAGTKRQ
For each of the compounds below, state its log10(IC50).
Record value = log10 of IC50 given in nM.

# return log10(IC50) for each item in the list
1. Cc1cccc(N2CCN(CC(O)COc3ccc(C(=O)c4ccccc4)cc3)CC2)c1C (configuration not stated)
2. O=C(c1ccccc1)c1cccc(OCC(O)CN2CCN(c3ccc(F)cc3)CC2)c1 (configuration not stated)

Output:
1: 2.81; 2: 2.76

Go through the items and report each one's log10(IC50).
1. Cc1ccc(NC(=S)N2CCN(CC(O)COc3ccccc3C(=O)c3ccccc3)CC2)cc1 (configuration not stated)
2. O=C(c1ccccc1)c1ccc(OCC(O)CN2CCOCC2)cc1 (configuration not stated)
3. O=C(c1ccccc1)c1ccccc1OCC(O)CN1CCN(CC(O)COc2ccccc2C(=O)c2ccccc2)CC1 (configuration not stated)
4. Cc1ccc(NC(=O)N2CCN(CC(O)COc3ccccc3C(=O)c3ccccc3)CC2)cc1 (configuration not stated)

Output:
2.58
3.73
1.70
2.68

Hi! Can you tell me log10(IC50) for each of these compounds?
1. O=C(c1ccccc1)c1ccccc1OCC(O)CN1CCOCC1 (configuration not stated)
2. Cc1cccc(N2CCN(CC(O)COc3cccc(C(=O)c4ccccc4)c3)CC2)c1C (configuration not stated)
3. CC(=O)c1cc(C)ccc1OCC(O)CN1CCN(CC(O)COc2ccccc2C(=O)c2ccccc2)CC1 (configuration not stated)
4. O=C(c1ccccc1)c1ccccc1OCC(O)CN1CCN(c2ccc(F)cc2)CC1 (configuration not stated)
5. Cc1ccccc1N1CCN(CC(O)COc2ccc(C(=O)c3ccccc3)cc2)CC1 (configuration not stated)
6. CCCNCC(O)COc1ccccc1C(=O)c1ccc(C)cc1 (configuration not stated)

Output:
[4.13, 2.23, 3.98, 2.18, 2.70, 3.08]
